Biological target: human α2C‐adrenoceptor (Homo sapiens, UniProt P18825)
Sequence (P18825 1-462): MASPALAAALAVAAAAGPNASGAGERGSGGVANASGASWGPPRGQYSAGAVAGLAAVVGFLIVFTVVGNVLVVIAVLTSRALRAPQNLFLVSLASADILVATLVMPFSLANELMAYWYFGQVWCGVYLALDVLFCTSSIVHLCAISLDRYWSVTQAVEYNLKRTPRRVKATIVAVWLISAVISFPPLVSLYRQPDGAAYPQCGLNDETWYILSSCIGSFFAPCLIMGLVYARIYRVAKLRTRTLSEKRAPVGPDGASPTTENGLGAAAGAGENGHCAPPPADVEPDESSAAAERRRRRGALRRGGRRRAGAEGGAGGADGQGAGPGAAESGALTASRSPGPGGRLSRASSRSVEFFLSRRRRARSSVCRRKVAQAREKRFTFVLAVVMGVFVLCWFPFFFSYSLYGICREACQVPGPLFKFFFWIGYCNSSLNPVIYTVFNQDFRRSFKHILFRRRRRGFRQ
Conditions: CHO‐α2C cells, CRE‐SPAP production in the absence of forskolin
observable: Log EC50 (Gs), CRE‐SPAP (without forskolin)

Solved entries:
{"columns": ["molecule", "target-entity", "val"],
 "data": [
  ["OCc1cc(C(O)CNCCCCCCOCCCCc2ccccc2)ccc1O (stereo not drawn)", "human α2C‐adrenoceptor (Homo sapiens, UniProt P18825)", "No response"],
  ["c1ccc2c(c1)CCCC2C1=NCCN1 (stereo not drawn) [Tetrahydrozoline]", "human α2C‐adrenoceptor (Homo sapiens, UniProt P18825)", "No response"],
  ["CCN1CCc2nc(N)oc2CC1", "human α2C‐adrenoceptor (Homo sapiens, UniProt P18825)", "No response"],
  ["C[C@H](N)[C@H](O)c1cccc(O)c1", "human α2C‐adrenoceptor (Homo sapiens, UniProt P18825)", "No response"],
  ["c1ccc2c(CC3=NCCN3)cccc2c1", "human α2C‐adrenoceptor (Homo sapiens, UniProt P18825)", "No response"],
  ["NC[C@H](O)c1ccc(O)c(O)c1", "human α2C‐adrenoceptor (Homo sapiens, UniProt P18825)", "No response"],
  ["CCNCC(O)c1cccc(O)c1 (stereo not drawn)", "human α2C‐adrenoceptor (Homo sapiens, UniProt P18825)", "No response"],
  ["CS(=O)(=O)Nc1c(O)ccc2c1CCCC2C1=NCCN1 (stereo not drawn)", "human α2C‐adrenoceptor (Homo sapiens, UniProt P18825)", "No response"],
  ["NCC(O)c1ccc(O)cc1 (stereo not drawn)", "human α2C‐adrenoceptor (Homo sapiens, UniProt P18825)", "No response"],
  ["C1COC(NC(C2CC2)C2CC2)=N1", "human α2C‐adrenoceptor (Homo sapiens, UniProt P18825)", "No response"]
]}

Enter reported Log EC50 (Gs), CRE‐SPAP (without forskolin) observed with human α2C‐adrenoceptor (Homo sapiens, UniProt P18825) for COc1ccc(OC)c(C(O)C(C)N)c1 (stereo not drawn) No response

# get_value(readout= Log EC50 (Gs), CRE‐SPAP (without forskolin), system= human α2C‐adrenoceptor (Homo sapiens, UniProt P18825)) for CC(CCc1ccc(O)cc1)NCCc1ccc(O)c(O)c1 (stereo not drawn) No response

# returns recorded Log EC50 (Gs), CRE‐SPAP (without forskolin) (system: human α2C‐adrenoceptor (Homo sapiens, UniProt P18825)) for c1ccc(C2CC2)c(OCC2=NCCN2)c1 No response

Observed Log EC50 (Gs), CRE‐SPAP (without forskolin) on human α2C‐adrenoceptor (Homo sapiens, UniProt P18825) for CCc1cccc(CC)c1NC1=NCCN1 , please. No response
